# Target Entity: T1, Gelatin-binding domain of human plasma fibronectin (human)
# T1 construct: also called GBD; source: bought: Sigma-Aldrich
# Procedure Summary: SPR
# Condition Summary: both partners purified
Endpoint Name: kon (M⁻¹ s⁻¹)
One number for each entry, in M⁻¹ s⁻¹.

Binder: Histidine-tagged LigBCen2R (domain or fragment) TATYNSISENIDITVSAATLSSISISPINTNINATVSKQFFAVGTYSDGTKADLTSSVTWSSSNKSQAKVSNASKTKGLVTGIASGNSIITATYGSVSGNTILTVNKTDTI
Endpoint Name: kon
Assay Value: 4830

# lookup: kon of LigAVar11 (domain or fragment, biotin (in the ELISA)) FQVTPAKVVSIEVIPNNISFAKGNSYQFKATGIYTDHSEADITEQVTWSSSNPKIASVENTFGSAGLVNTTNIGSTNITAKLSDTVSGASVLNVTPALLRY 1190
